inhibition overview
biological target: Serine/threonine-protein kinase Nek6 (Homo sapiens); conditions: at 0.1 µM
Give a bare numeral; the unit % is implied.

>  <Compound>
CS(=O)(=O)Nc1ccc(N/C=C2\C(=O)Nc3ccccc32)cc1

>  <Target Desc>
Serine/threonine-protein kinase Nek6 (Homo sapiens)

>  <Quantitative Readout>
-1.58

$$$$
>  <Compound>
CC(C)=Cc1cccc2c1/C(=N/Nc1ccc(S(N)(=O)=O)cc1)C(=O)N2

>  <Target Desc>
Serine/threonine-protein kinase Nek6 (Homo sapiens)

>  <Quantitative Readout>
1.86

$$$$
>  <Compound>
COC(=O)Nc1nc2cc(Oc3cccc(NC(=O)Nc4cc(C(F)(F)F)ccc4F)c3)ccc2[nH]1

>  <Target Desc>
Serine/threonine-protein kinase Nek6 (Homo sapiens)

>  <Quantitative Readout>
1.5

$$$$
>  <Compound>
Cc1ccc(NC(=O)c2ccnc(N3CCCC3)c2)cc1-c1ccc(C(=O)NCC2CC2)cc1

>  <Target Desc>
Serine/threonine-protein kinase Nek6 (Homo sapiens)

>  <Quantitative Readout>
1.43

$$$$
>  <Compound>
Fc1cccc(COc2ccc(Nc3ncnc4cc(-c5ccc[nH]5)sc34)cc2Cl)c1

>  <Target Desc>
Serine/threonine-protein kinase Nek6 (Homo sapiens)

>  <Quantitative Readout>
1.65

$$$$
>  <Compound>
CCCN1CCC(Oc2cc(Nc3nc(Nc4cccc(F)c4C(N)=O)c4cc[nH]c4n3)c(OC)cc2Cl)CC1

>  <Target Desc>
Serine/threonine-protein kinase Nek6 (Homo sapiens)

>  <Quantitative Readout>
0.14

$$$$
>  <Compound>
O=C1Nc2ccc(C(=O)c3ccco3)cc2C1=Cc1cc(Cl)c(O)c(Cl)c1

>  <Target Desc>
Serine/threonine-protein kinase Nek6 (Homo sapiens)

>  <Quantitative Readout>
-0.24

$$$$
>  <Compound>
CCn1c(-c2nonc2N)nc2cncc(C(=O)N3CC[C@H](N)C3)c21

>  <Target Desc>
Serine/threonine-protein kinase Nek6 (Homo sapiens)

>  <Quantitative Readout>
0.64

$$$$
>  <Compound>
NC(=O)c1cccc(Nc2nccc(Nc3cccc4[nH]ncc34)n2)c1

>  <Target Desc>
Serine/threonine-protein kinase Nek6 (Homo sapiens)

>  <Quantitative Readout>
-4.36

$$$$
>  <Compound>
CN(C)c1cc2c(Nc3ccc4nc(Cc5ccccc5)[nH]c4c3)ncnc2cn1

>  <Target Desc>
Serine/threonine-protein kinase Nek6 (Homo sapiens);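 further: values are the mean percent inhibition of NEK6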

>  <Quantitative Readout>
3.19

$$$$

So what does the record say about inhibition for "COc1cccc(-n2ncc3c(N/N=C/c4cccc(F)c4)ncnc32)c1" ? 2.56

###

biological target: Inhibitor of nuclear factor kappa-B kinase subunit epsilon (Homo sapiens) (UniProt Q14164); conditions: at 1 µM;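 further: reported values are averaged percent inhibition figures against human IKKε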
Sequence (Q14164 whole entry): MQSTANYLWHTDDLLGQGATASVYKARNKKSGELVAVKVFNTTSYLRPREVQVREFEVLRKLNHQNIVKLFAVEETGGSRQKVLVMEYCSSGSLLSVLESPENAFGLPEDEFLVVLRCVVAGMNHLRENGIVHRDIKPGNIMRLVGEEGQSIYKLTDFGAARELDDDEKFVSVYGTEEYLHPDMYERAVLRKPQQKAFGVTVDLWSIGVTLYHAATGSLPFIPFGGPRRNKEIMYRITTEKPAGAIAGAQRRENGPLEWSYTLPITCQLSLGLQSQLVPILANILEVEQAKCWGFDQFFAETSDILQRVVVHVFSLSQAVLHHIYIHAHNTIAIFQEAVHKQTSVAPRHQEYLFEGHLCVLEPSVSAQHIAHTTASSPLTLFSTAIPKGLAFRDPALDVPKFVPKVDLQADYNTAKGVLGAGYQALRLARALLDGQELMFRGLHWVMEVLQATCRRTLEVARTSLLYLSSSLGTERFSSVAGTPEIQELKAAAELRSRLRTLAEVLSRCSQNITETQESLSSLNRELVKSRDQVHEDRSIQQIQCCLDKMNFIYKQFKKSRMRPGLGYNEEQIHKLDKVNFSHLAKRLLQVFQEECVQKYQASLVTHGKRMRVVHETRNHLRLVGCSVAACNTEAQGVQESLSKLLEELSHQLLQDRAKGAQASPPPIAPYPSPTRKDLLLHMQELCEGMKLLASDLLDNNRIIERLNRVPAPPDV
inhibition overview
Give a bare numeral; the unit % is implied.

Below, 2 compounds whose answers are already recorded.
>  <Compound>
CCCN1CCC=C(c2ccc(Nc3nc(Nc4ccccc4C(N)=O)c4cc[nH]c4n3)c(C)c2)C1

>  <Property>
inhibition

>  <Quantitative Readout>
10.3

$$$$
>  <Compound>
O=C(Nc1n[nH]c2nc(-c3ccco3)c(Br)cc12)C1CC1

>  <Property>
inhibition

>  <Quantitative Readout>
3.64

$$$$

So what does the record say about inhibition for "COc1cc(C=NNc2ncnc3c2cnn3-c2ccccc2)ccc1O" ? 8.67

So what does the record say about inhibition for "CCn1c(-c2nonc2N)nc2c(N3CCCC3)nccc21" ? -2.89

So what does the record say about inhibition for "Cc1nnc(-c2ccc(C)c(-c3ccc(C(=O)Nc4cccc(C#N)c4)cc3)c2)o1" ? 6.02

So what does the record say about inhibition for "COC(=O)Nc1nc2cc(Oc3cccc(NC(=O)Nc4cc(C(F)(F)F)ccc4F)c3)ccc2[nH]1" ? 0.25

So what does the record say about inhibition for CC1=C(C(=O)Nc2ccc3[nH]ncc3c2)C(c2ccc3ccccc3c2)CC(=O)N1 (stereo not given) ? 3.81

Values were extracted from ChEMBL document CHEMBL1961873.
